# target.system: DDR1 (Homo sapiens, UniProt Q08345)
# Sequence (Q08345 19-913): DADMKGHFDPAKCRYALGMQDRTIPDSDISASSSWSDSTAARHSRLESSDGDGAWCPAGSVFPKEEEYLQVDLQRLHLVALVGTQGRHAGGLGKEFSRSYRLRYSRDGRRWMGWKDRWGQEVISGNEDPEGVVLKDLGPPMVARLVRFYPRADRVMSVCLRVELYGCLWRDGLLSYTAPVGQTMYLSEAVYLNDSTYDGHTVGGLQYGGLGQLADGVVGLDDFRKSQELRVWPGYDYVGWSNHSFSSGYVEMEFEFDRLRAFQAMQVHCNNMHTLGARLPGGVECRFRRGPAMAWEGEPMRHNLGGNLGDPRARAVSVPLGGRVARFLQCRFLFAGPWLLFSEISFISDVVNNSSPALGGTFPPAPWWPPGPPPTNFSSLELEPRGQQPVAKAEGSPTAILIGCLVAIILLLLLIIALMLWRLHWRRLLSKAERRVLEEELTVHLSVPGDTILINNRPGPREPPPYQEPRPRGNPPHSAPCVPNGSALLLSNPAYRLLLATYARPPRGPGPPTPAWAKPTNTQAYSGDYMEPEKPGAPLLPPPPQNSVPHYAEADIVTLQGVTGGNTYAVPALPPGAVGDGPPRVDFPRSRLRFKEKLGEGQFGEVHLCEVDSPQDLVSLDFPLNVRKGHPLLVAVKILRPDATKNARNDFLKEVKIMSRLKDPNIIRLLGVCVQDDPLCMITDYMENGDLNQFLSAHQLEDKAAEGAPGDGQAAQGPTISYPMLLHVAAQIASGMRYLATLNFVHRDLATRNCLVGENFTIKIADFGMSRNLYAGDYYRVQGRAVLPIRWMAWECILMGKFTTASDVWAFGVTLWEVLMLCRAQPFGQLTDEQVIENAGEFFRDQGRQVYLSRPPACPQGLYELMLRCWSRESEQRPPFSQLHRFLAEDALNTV
# experimental.protocol: DDR1 LanthaScreen Europium Kinase Binding assay
# stated.conditions: binding affinity; IC50 converted in Ki using Cheng-Prusoff; read-out: Ki DDR1
// reported Ki per item
value.type: Ki

1) CC(C)(C)c1cc(NC(=O)c2ccc3c(c2)N(Cc2cnc4[nH]ncc4c2)CC3)n(-c2ccccc2)n1
25 to 50 nM
2) Cc1cn(-c2cc(NC(=O)c3ccc4c(c3)N(Cc3cnc5cnccn35)CC4)cc(C(F)(F)F)c2)cn1
< 25 nM
3) CC1CN(Cc2cnc3[nH]ncc3c2)c2cc(C(=O)Nc3cccc(C(F)(F)F)c3)ccc21 (single isomer, unassigned) [Example 34]
< 25 nM
4) Cc1n[nH]c2ncc(CN3CCc4ccc(C(=O)Nc5cc(CN6CCN(C)CC6)nc(C(F)(F)F)c5)cc43)cc12
< 25 nM
5) CCC1CN(Cc2cnc3cnccn23)c2cc(C(=O)Nc3cc(-n4cnc(C)c4)cc(C(F)(F)F)c3)ccc21 (single isomer, unassigned)
< 25 nM
6) CC(C)(c1cc(NC(=O)c2ccc3c(c2)N(Cc2cnc4ccccn24)CC3)no1)C(F)(F)F
25 to 50 nM
7) CN1CCN(Cc2cc(NC(=O)c3ccc4c(c3)N(C(=O)c3cnc5cnccn35)CC4)cc(C(F)(F)F)c2)CC1
< 25 nM
